target.under.test: T1, human PD-1-hFc (human, UniProt Q15116 25-170)
T1 construct: extracellular domain; Extracellular domain of human PD-1 fused to an hFc tag, made in house; not shown: hFc tag
test.details: competitive ELISA, coated PD-1-hFc, competitor PDL1-mFc
Give IC50 for every item shown.
Enter the number, and then the unit.

Some entries whose results are on file:
>  <binder>
humanized antibody 91D5-HZ1 (antibody, human IgG4 S228P, kappa, V domains shown) VH: EVQLVQSGAEVKKPGASVKVSCKASGYTFTDYYMNWVREAPGQGLEWMGEINPKYGDTTYAQKLQGRVTLTVDKSTSTAYMELSSLRSDDTAVYYCAKGIRLFDSWGQGTLVTVSS VL: DIQLTQSPSSLSASVGDRVTITCRPSGNVHNYFAWYQQKPGKSPKLLVYNAKTLAEGVPSRFSGSGSGTDYTLTISSLQPEDFATYYCHHYYTAPFTFGGGTKVEIKR

>  <result>
1.19 nM

$$$$
>  <binder>
chimeric antibody 29C6-CH (antibody, human IgG4 S228P, kappa, V domains shown, Murine 29C6 variable regions fused to the IgG4 (S228P) heavy chain constant region and the human kappa constant region) VH: QVQLEESGPELVKPGASVKISCKTSGYTFTEYTIYWVKQSHGKSLEWIGGINPKNGATLYNQKFKVKATLTVDKSSSTAYMELRSLTSEDSAVYYCVRDYHGNSHDSMDYWGQGTSVTVSS VL: QIVLTQSPAIMSASPGEKVTITCSASSSVSYMHWFRQKPGTSPKLWIYYTSNLASGVPAHFSGSGSGTSYSLTISRMEAEDAATYYCQQRSDYPPTFGGGTKLEIKR

>  <result>
1.15 nM

$$$$
>  <binder>
chimeric antibody 91D5-CH (antibody, human IgG4 S228P, kappa, V domains shown, Murine 91D5 variable regions fused to the IgG4 (S228P) heavy chain constant region and the human kappa constant region) VH: EVQLQQSGPELVKPGASVKISCRASGYTFTDYYMNWVKESHGKSLEWIGEINPKYGDTTYNQKFKDKATLTVDKSSSTASVELRSLTSEDSAVYYCAKGIRLFDSWGQGTTVTVSS VL: DIQLTQSPASLSASVGETVTITCRPSGNVHNYFAWYQQKQGKSPQLLVYNAKTLAEGVPSRFSGSGSGTQYSLKINSLQPEDFGTYYCHHYYTAPFTFGSGTKLEIKR

>  <result>
0.96 nM

$$$$

We next turn to a different binder, shown below.
The value of IC50 measured for the binder humanized antibody 29C6-HZ2 (antibody, human IgG4 S228P, kappa, V domains shown) VH: QVQLVQSGVEVKKPGASVKVSCKTSGYTFTEYTIYWVRQAPGQGLEWIGGINPKNGATLYNQKFKVRATLTVDKSTTTAYMELKSLQFDDTAVYYCVRDYHGNSHDSMDYWGQGTTVTVSS VL: EIVLTQSPATLSLSPGERATLSCSASSSVSYMHWFQQKPGQAPRLLIYYTSNLASGVPARFSGSGSGTDYTLTISSLEPEDFAVYYCQQRSDYPPTFGGGTKVEIKR turned out to be 0.88 nM
